# targetDesc: human full-length MKNK1 (Homo sapiens, UniProt Q9BUB5, T385D)
# Construct: GST (N)
# Sequence (Q9BUB5 1-424 isoform Q9BUB5-2 T344D): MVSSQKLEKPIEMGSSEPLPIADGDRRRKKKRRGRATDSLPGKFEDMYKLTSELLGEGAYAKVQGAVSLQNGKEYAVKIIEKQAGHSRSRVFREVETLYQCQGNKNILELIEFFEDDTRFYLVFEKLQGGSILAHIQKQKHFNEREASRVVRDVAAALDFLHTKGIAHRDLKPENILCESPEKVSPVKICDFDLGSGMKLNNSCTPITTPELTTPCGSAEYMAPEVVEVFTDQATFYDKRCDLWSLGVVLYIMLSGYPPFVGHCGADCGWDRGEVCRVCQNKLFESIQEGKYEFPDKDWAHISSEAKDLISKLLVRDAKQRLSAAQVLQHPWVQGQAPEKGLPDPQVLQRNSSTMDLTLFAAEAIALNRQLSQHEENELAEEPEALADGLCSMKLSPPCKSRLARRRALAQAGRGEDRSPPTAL
# testDescription: MKNK1 kinase high ATP assay (TR-FRET)
# runParameters: high ATP (2 mM final), 15 min preincubation with enzyme, 30 min reaction at 22° C.
Can you tell me pIC50 for the items I'm about to list?
Numbers only, as −log10 of the molar value.

For orientation, consider the following solved cases.
| querySmiles | quantity | resultNumber |
| --- | --- | --- |
| Cc1cc2[nH]ncc2cc1Nc1ncnc2[nH]cc(C(=O)N3CCN(C)CC3)c12 | pIC50 | 6.71 |
| COc1cc2[nH]ncc2cc1Nc1ncnc2[nH]cc(C(F)(F)F)c12 | pIC50 | 7.80 |
| CC(C)Oc1cc2[nH]ncc2cc1Nc1ncnc2[nH]cc(C#N)c12 | pIC50 | 8.70 |
| COc1cc2[nH]ncc2cc1Nc1ncnc2[nH]c(C(=O)N3C[C@H]4C[C@@H]3CO4)c(Br)c12 | pIC50 | 8.40 |
| Cc1cc2[nH]ncc2cc1Nc1ncnc2[nH]cc(C(=O)N(C)C)c12 | pIC50 | 6.68 |

Hey, can you go through the list below and give me pIC50 for every item?
1. N#Cc1n[nH]c2ccc(Nc3ncnc4[nH]ccc34)cc12
2. CC(C)Oc1cc2[nH]ncc2cc1Nc1ncnc2[nH]cc(C(=O)N3CCN(C)CC3)c12
3. COc1cc2[nH]ncc2cc1Nc1ncnc2[nH]c(C(=O)N(C)CCN(C)Cc3ccccc3)c(Br)c12
4. CC(C)Oc1cc2[nH]ncc2cc1Nc1ncnc2[nH]c(C#CCO)cc12
5. CN1CCN(C(=O)c2c[nH]c3ncnc(Nc4cc5cn[nH]c5cc4F)c23)CC1
6. CC(C)Oc1cc2[nH]ncc2cc1Nc1ncnc2[nH]cc(Br)c12
7. CC(C)Oc1cc2[nH]ncc2cc1Nc1ncnc2[nH]ccc12

Reply:
1: 5.87; 2: 6.93; 3: 8.40; 4: 7.85; 5: 7.52; 6: 8.70; 7: 7.59

Attribution: patent US20150252047A1
